The origin of these recorded values is ChEMBL document CHEMBL3044679.

- Test system: L1210
- procedure summary: Cytostatic activity against Mus musculus (mouse) L1210 cells after 48 hr by coulter counter analysis
- Format: functional, cell-based
- assay context: L1210, 48 h
experimental readout: log10 of IC50 (log10 of the value in µg/mL)

sample_smiles=Fc1ccc(/N=C/c2cccs2)cc1Cl assay_system=L1210 experimental_readout="log10 of IC50" observed_result=0.51
sample_smiles=Fc1ccc(/N=C/c2ccccc2Cl)cc1Cl assay_system=L1210 experimental_readout="log10 of IC50" observed_result=0.81
sample_smiles=CNC(=O)/C(=C/c1ccccc1Cl)c1ccccc1 assay_system=L1210 experimental_readout="log10 of IC50" observed_result=1.81
sample_smiles=Fc1ccc(/C=C/c2ccccc2F)cc1 assay_system=L1210 experimental_readout="log10 of IC50" observed_result=1.79
sample_smiles=CCNC(=O)/C(=C/c1ccccc1)c1ccccc1 assay_system=L1210 experimental_readout="log10 of IC50" observed_result=2.12
sample_smiles=O=C(O)/C(=C/c1ccccc1Cl)c1ccccc1 assay_system=L1210 experimental_readout="log10 of IC50" observed_result=1.88
sample_smiles=CNC(=O)/C(=C/c1ccc(OC)cc1)c1ccccc1 assay_system=L1210 experimental_readout="log10 of IC50" observed_result=1.83
sample_smiles=COc1ccc(/C=C/c2ccc(F)cc2)cc1 assay_system=L1210 experimental_readout="log10 of IC50" observed_result=1.41
sample_smiles=COC(=O)/C(=C/c1ccccc1Cl)c1ccccc1 assay_system=L1210 experimental_readout="log10 of IC50" observed_result=1.40
sample_smiles=Cc1ccc(/C=C/c2ccc(N(C)C)cc2)cc1 assay_system=L1210 experimental_readout="log10 of IC50" observed_result=2.16
sample_smiles=COC(=O)/C(=C/c1ccc(OC)cc1)c1ccccc1 assay_system=L1210 experimental_readout="log10 of IC50" observed_result=1.82
sample_smiles=CNC(=O)/C(=C/c1ccccc1F)c1ccccc1 assay_system=L1210 experimental_readout="log10 of IC50" observed_result=1.93
sample_smiles=Cc1ccc(/C=C/c2ccccc2F)cc1 assay_system=L1210 experimental_readout="log10 of IC50" observed_result=1.86
